Value source: a melting point compilation (Tetko et al.; mined from patent text by program, amines drawn as free bases though some values may be those of a salt)

attribute.measured: melting point

compound: CC(=O)c1ccccc1C(O)=S
value.measured: 127 to 129 °C
--
compound: Cc1cc(F)ccc1-c1nc(NC(C)(CO)CO)nc2c1ccc(=O)n2-c1c(F)cccc1F
value.measured: 158 to 160 °C
--
compound: CCOC(=O)c1cn([C@@H](C)CO)c2c(F)c(N3CCN(C)CC3)c(F)cc2c1=O
value.measured: 195 to 197 °C
--
compound: CSCCNC(=O)c1cccc(-c2ccc3c(c2)C(Oc2ccc(Cl)cc2Cl)CC3)c1 (stereo not given)
value.measured: 141 to 142 °C
--
compound: CS(=O)(=O)c1ccc(/C(=C2\CCN(CCO)C2=O)c2ccc(Cl)cc2)cc1
value.measured: 187 to 188 °C
